Test system: SNB-75 CNS
ASSAY DETAILS: NCI tumour cell line growth inhibition, 48 h
The following compounds are shown together with reported TGI values.
MEASUREMENT LABEL: TGI

>>> df
                                    compound  assayed_target  measurement_label     value
 0  CC1(C)CC(=O)c2c(nc3c4c([nH]c(-c5ccc([N+](=O)[O-])cc5)c24)CC(C)(C)C3)C1      SNB-75 CNS                TGI  > 100 µM
 1  Nc1nc2ccc(NCc3ccc(C(=O)NC(CCC(=O)O)C(=O)O)cc3)cc2c(=O)[nH]1 (stereo not drawn)      SNB-75 CNS                TGI  > 100 µM
 2        NCCNC1=CC(=O)c2nc3ccccc3c3ccnc1c23      SNB-75 CNS                TGI   > 29 µM
 3  CC1(C)S[C@H](c2ccccc2C(=O)O)N[C@@H]1CC(=O)O      SNB-75 CNS                TGI  > 100 µM
 4  Cc1ccc(C2C3Cc4ccccc4C3=NN2c2ccc(S(=O)(=O)NC(=O)NC3CCCCC3)cc2)cc1 (stereo not drawn)      SNB-75 CNS                TGI  > 100 µM
 5              O=C(O)/C=C\C(=O)c1ccc(Cl)cc1      SNB-75 CNS                TGI   > 79 µM
 6           C=CC1(c2ccc(-c3ccccc3)cc2)OCCO1      SNB-75 CNS                TGI  > 100 µM
 7   NC(=O)c1ncn(CC2(COC(=O)c3ccccc3)CCC2)n1      SNB-75 CNS                TGI   92.5 µM
 8  O=C(O)CNS(=O)(=O)c1ccc(NC(=O)c2ccccc2[N+](=O)[O-])cc1      SNB-75 CNS                TGI  > 100 µM
 9  COc1cc(COC(=O)N2CSCC2C(=O)O)c([N+](=O)[O-])cc1OC (stereo not drawn)      SNB-75 CNS                TGI  > 100 µM
10  C(CCCCc1nnc(N2CCOCC2)o1)CCCc1nnc(N2CCOCC2)o1      SNB-75 CNS                TGI  > 100 µM
11      COc1ccc2c(c1)N=C(N)n1c(nc3ccccc31)S2      SNB-75 CNS                TGI  > 100 µM
12  CC1CCC2(OC1)OC1CC3C4CCC5CC(O)CCC5(C)C4CC(=O)OC3(C)C1C2C (stereo not drawn)      SNB-75 CNS                TGI  > 100 µM
13           CCOC(=O)C(=Cc1ccccc1Cl)C(=O)OCC      SNB-75 CNS                TGI  0.617 µM
14  Nc1nc(/C=C\c2ccc([N+](=O)[O-])s2)nc(N2CCOCC2)n1      SNB-75 CNS                TGI   34.2 µM
15     O=C(CCN1CCOCC1)c1ccc(Oc2ccc(F)cc2)cc1      SNB-75 CNS                TGI   46.2 µM
16                       O=C1CCCC/C1=C(\Br)I      SNB-75 CNS                TGI   34.8 µM
17       CCc1cccc(C)c1NC(=O)CCc1n[nH]c(=S)o1      SNB-75 CNS                TGI  > 100 µM

---

System: OVCAR-5 ovarian
ASSAY DETAILS: NCI tumour cell line growth inhibition, 48 h
MEASUREMENT LABEL: GI50

>>> print(df.to_string())
                                   compound      value
0   CC(=O)Nc1c(Br)cc2c(c1Br)Cc1cc(Br)ccc1-2      12 µM
1  C/C=C/C1=CN2C(=O)c3cc(OC4OC(C)C(NC)C(C)(O)C4O)c(C)cc3N=C[C@@H]2C1 (stereo not given in full)  0.0431 µM
2  CN1C[C@@H](c2ccc(Cl)cc2)[C@]2(NC(=S)N(c3ccc(F)c(Cl)c3)C2=O)[C@@]12C(=O)NC1C=CC(Cl)=C[C@H]12 (stereo not given in full)    2.36 µM
3  COc1ccc(-c2nc3c(-c4ccccc4)nc(-c4ccccc4)cn3c2-c2ccc(OC)cc2)cc1   > 100 µM
4  O=C1CCc2c(Oc3ccc4c(c3)[C@H]3[C@@H](O4)[C@@H]3c3nc4ccc(C(F)(F)F)cc4[nH]3)ccnc2N1    1.07 µM
5     CC(C)N(Cc1c(F)cccc1F)c1ccc(CO)c(Cl)c1  0.0702 µM
6  C=CC(C)c1cccc(C=O)c1O (stereo not given)   > 100 µM
7  O=C(NC1CCCCC1)OCc1c(COC(=O)NC2CCCCC2)c(-c2ccc(Cl)c(Cl)c2)n2c1CCC2    5.19 µM
8  Cc1ccc(-c2nc3nc(-c4ccc(Br)cc4)nc(N4CCCNCC4)c3o2)cc1    16.3 µM
9  Cc1ccc(C2C3Cc4ccccc4C3=NN2c2ccc(S(=O)(=O)NC(=O)NC3CCCCC3)cc2)cc1 (stereo not given)    27.3 µM

---

Catalogue of TGI values
Test system: NCI/ADR-RES ovarian
ASSAY DETAILS: NCI tumour cell line growth inhibition, 48 h

COMPOUND	U	SIGN QUALIFIER	TGI
Fc1cccc(F)c1C1SCc2nc3cc4ccccc4cc3n21 (stereo not given)	µM	>	100
CC[C@H](C)[C@H]1NC(=O)[C@@H](NC(=O)[C@@H](CC(C)C)N(C)C(=O)C2CCCN2C(=O)[C@H](C)O)[C@@H](C)OC(=O)[C@@H]2Cc3ccccc3CN2C(=O)[C@@H]2CCCN2C(=O)[C@H](CC(C)C)NC(=O)[C@@H](C)C(=O)[C@H](C(C)C)OC(=O)C[C@@H]1O (stereo not given in full)	µM	>	100
O=[N+]([O-])c1ccc2sc(C=Nc3ccc(O)cc3)cc2c1	µM	>	100
Nc1nc(/C=C\c2ccc([N+](=O)[O-])s2)nc(N2CCOCC2)n1	µM	=	33.3
COc1cccc(/C=C2\COc3ccc(O)c(O)c3C2=O)c1	µM	=	5.95
Oc1ccc[n+](Cc2ccccc2)c1	µM	>	100
C(CCCCc1nnc(N2CCOCC2)o1)CCCc1nnc(N2CCOCC2)o1	µM	>	100
COC(=O)C1=C(C(=O)OC)SC(=C(Cl)C(=S)Oc2ccccc2N)S1	µM	=	37.1
Clc1ccccc1CN1COc2c(cc(Cl)c3cccnc23)C1	µM	=	1.74
Cc1cc(C)c([S@@](=O)O[C@@H]2[C@H]3OC(C)(C)O[C@H]3O[C@@H]2[C@H]2COC(C)(C)O2)c(C)c1	µM	=	57

---

Test system: DU-145 prostate
ASSAY DETAILS: NCI tumour cell line growth inhibition, 48 h
MEASUREMENT LABEL: TGI

>>> df
                                   molecule  measurement_label     value
0  CCOC(=O)C(Br)(C(N)=O)C1(O)OC(c2ccccc2)=C(Br)C1=O (stereo unspecified)                TGI  > 100 µM
1   CC(=O)Nc1c(Br)cc2c(c1Br)Cc1cc(Br)ccc1-2                TGI   21.4 µM
2        O=C(O)c1cccc(SSc2cccc(C(=O)O)c2)c1                TGI  > 100 µM
3  O=C1CSC(c2ccc([N+](=O)[O-])cc2)N1c1nc(-c2ccc3c(c2)CCCC3)cs1 (stereo unspecified)                TGI  > 100 µM
4  CC(C)OP(=O)(OC(C)C)c1ncc(-c2ccc(C(F)(F)F)cc2)c(NC2CCCCCC2)n1                TGI   > 10 µM
5  CC1(C)Cc2c(c3ccccc3c3nc4c(nc23)c2c(c3ccccc34)OC(C)(C)C2)O1                TGI  > 100 µM

---

Tested on: SN12C renal
ASSAY DETAILS: NCI tumour cell line growth inhibition, 48 h
TGI values for the molecules below.
MEASUREMENT LABEL: TGI

>>> df
                                    molecule     value
 0           CCOC(=O)C(=Cc1ccccc1Cl)C(=O)OCC   3.91 µM
 1  Fc1cccc(F)c1C1SCc2nc3cc4ccccc4cc3n21 (stereo unspecified)  > 100 µM
 2  CC(C)C[C@@H](NC(=O)[C@@H](Cc1cccc2ccccc12)NC(=O)N1CCOCC1)B(O)O  > 100 µM
 3  CCOC(=O)CCC(NC(=O)c1ccc(Sc2nc3cc(N)cc(N)c3nc2-c2ccccc2)cc1)C(=O)OCC (stereo unspecified)   44.5 µM
 4  COc1ccc(OC)c2c1C=C[C@H](C1(C)SCCS1)C2C(C)=O (stereo partly specified)  > 100 µM
 5               COc1ccc(NC(=S)Nc2ccccc2)cc1  > 100 µM
 6     Clc1ccccc1CN1COc2c(cc(Cl)c3cccnc23)C1  0.494 µM
 7            NC(=S)Nc1[nH]c(=S)nc2[nH]ccc12  > 100 µM
 8                        S=c1ssnc1-c1ccccn1     32 µM
 9  O=S(=O)(Nc1ccc(Cl)c(F)c1)c1ccc(-c2cnc(C3CC3)o2)cc1   14.4 µM
10  COC(=O)C1=C(C(=O)OC)SC(=C(Cl)C(=S)Oc2ccccc2N)S1   > 50 µM
